# System: Target C
# assay_method_text: HiBiT protein abundance assay, Target C
# Type: cell-based, human
# particulars: Homo sapiens, K562, 24 h, Table 13A, modified K562 cells
reported_property: IC50

compound="Fc1ccn(-c2ccc(-c3ccc(O[C@@H]4C[C@H]5CC[C@@H](C4)N5)nn3)c3scnc23)n1 [Compound 363]" measured="100 to 1000 nM"
compound="Cc1n[nH]c2c(-c3ccc(N(C)[C@@H]4C[C@H]5CC[C@@H](C4)N5)nn3)ccc(-c3cnn(C)n3)c12 [Compound 375]" measured="> 10000 nM"
compound="CC1(C)CC(Oc2ccc(-c3ccc(-c4cn[nH]c4)c4ncsc34)nn2)CC(C)(C)N1 [Compound 181]" measured="< 100 nM"
compound="Cc1ncc(-c2ccc(-c3ccc(N(C)C4CC(C)(C)NC(C)(C)C4)nc3)c3ncsc23)o1 [Compound 201]" measured="> 10000 nM"
compound="c1nc2c(-c3cn[nH]c3)ccc(-c3ccc(N4CCC5(CC4)CNC5)nn3)c2s1 [Compound 188]" measured="> 10000 nM"
compound="CN(c1ccc(-c2ccc(-c3cn[nH]c3)c3ncsc23)nn1)[C@@H]1C[C@H]2CC[C@@H](C1)N2 [Compound 213]" measured="< 100 nM"
compound="CN(c1ccc(-c2cc(F)c(-c3cnn(C)c3)c3cn[nH]c23)nn1)[C@@H]1C[C@H]2CC[C@@H](C1)N2 [Compound 291]" measured="< 100 nM"
compound="c1nc2c(-c3cn[nH]c3)ccc(-c3ccc(N(C4CC4)C4C[C@H]5CCC[C@@H](C4)N5)nn3)c2s1 (stereo partly drawn) [Compound 311]" measured="< 100 nM"
compound="c1cnn(-c2ccc(-c3ccc(O[C@@H]4C[C@H]5CC[C@@H](C4)N5)nn3)c3scnc23)c1 [Compound 334]" measured="1000 to 10000 nM"
compound="c1nc2c(-c3cn[nH]c3)ccc(-c3cnc(N4CCN[C@@H](C5CC5)C4)nn3)c2s1 [Compound 552]" measured="100 to 1000 nM"
compound="c1nc2c(-c3cn[nH]c3)ccc(-c3ccc(C4CCNCC4)nn3)c2s1 [Compound 206]" measured="> 10000 nM"
compound="C[C@@H]1C[C@@H](N(C)c2ccc(-c3ccc(-n4cccn4)c4cc[nH]c34)nn2)CCN1 [Compound 110]" measured="1000 to 10000 nM"
compound="CN(c1ccc(-c2ccc(-c3cnnc(O)c3)c3scnc23)nn1)C1CC(C)(C)NC(C)(C)C1 [Compound 234]" measured="> 10000 nM"
compound="Cl.Fc1cc(-c2ccc(NC3CCNCC3)nn2)c2[nH]ncc2c1-c1cn[nH]c1 [Compound 350, hydrochloride]" measured="> 10000 nM"
compound="c1nc2c(-c3cn[nH]c3)ccc(-c3ccc(OC4CCNCC4)nn3)c2s1 [Compound 183]" measured="< 100 nM"
